experimental details: NCI Yeast Anticancer Drug Screen. Data for the rad50 strain (AID 155);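 further: 0% = growth of vehicle-only cultures of the same strain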
experimental setup: S. cerevisiae rad50 strain growth inhibition; at 50.0 µM (retest, dose inferred, filed as 5.0); stronger effect = higher value
This is part of a sample that, as a whole, favours compounds with a hit. Of some 79,000 tested, about 15% had one in any assay. Active and inactive are the calls of the source. No stated cut-off is given here; in the data, active means growth inhibition above about 70%; inactive means the rest.
Reported values of growth inhibition for individual entries
observable: growth inhibition

1. CC(NC(=O)C(Cc1ccccc1)NC(=O)c1ccc[n+](Cc2ccccc2)c1)C(N)=O (stereo not given)	-5% (inactive)
2. CCCCCCCCC(=O)NCCCNCCCNC(=O)CCCCCCCC	-17% (inactive)
3. C1=NC(N(Cc2ccccc2)Cc2ccccc2)N(Cc2ccccc2)N1 (stereo not given)	95% (active)
4. O=[N+]([O-])c1ccc(C=NC2CCCCC2)c([N+](=O)[O-])c1	46% (inactive)
5. O=[N+]([O-])c1ccc2nc(Nc3ccccc3)c(Nc3ccccc3)nc2c1	91% (active)
6. COc1ccc(NS(=O)(=O)c2ccc(F)cc2)cc1	-3% (inactive)
7. O=C1CC(c2ccccc2Cl)C(c2ccccc2Cl)C1 (stereo not given)	97% (active)
8. CCCCCCCCCCNC(=O)C[n+]1cccc(C(=O)NCc2ccccc2)c1	99% (active)
9. c1cc2ccc1C1NCCCN1CCN1CCCNC1c1ccc(cc1)C1NCCCN1CCN1CCCNC21 (stereo not given)	-11% (inactive)
10. CC1(C)OC(C(COC(=O)c2ccc([N+](=O)[O-])cc2)OS(=O)(=O)c2ccc([N+](=O)[O-])cc2)C(C(SCc2ccccc2)SCc2ccccc2)O1 (stereo not given)	97% (active)

Provenance of the data: PubChem BioAssay (NCI)
